ASSAY REMARKS: Single dose intravenous PK study in male Sprague Dawley rats (plasma by LC-MS/MS)
Assay type: in vivo
RECORDED CONDITIONS: male, Sprague Dawley, rat, plasma; PRX-002 (−) Isomer IV 2 mg/kg, mean; read-out: Tmax of PRX-002 (−) Isomer
PARAMETER: Tmax (min)

1. CCN[C@@H]1[C@@H]2CC[C@@H](C2)[C@H]1c1ccccc1 [PRX-002 (−) Isomer, reference compound]	8.22

---

ASSAY REMARKS: Single dose intravenous PK study in male Sprague Dawley rats (plasma by LC-MS/MS)
Assay type: in vivo
RECORDED CONDITIONS: male, Sprague-Dawley, rat, plasma, iv, 2 mg/kg, PRX-P5-011 IV 2 mg/kg b.w., 2.00 h, mean
PARAMETER: concentration at 2 h

1) CCCCCCCCCCCCCCCCCC(=O)OC(C)OC(=O)N(CC)C1C2CCC(C2)C1c1ccccc1 (single isomer, unassigned)	0 ng/mL

All values here come from patent US10662146B2.
